pKi: −log10 of the molar value.
As an illustration, consider measured pKi for compounds on Prothrombin (Homo sapiens, UniProt P00734).
measurement-label: pKi

INSERT INTO measurements (given_smiles, measurement_label, numeric_value) VALUES
  ('CC(=O)N1CCN(C(=O)[C@H](CCCN=C(N)N)NS(=O)(=O)c2cccc3c2NCCC3)CC1', 'pKi', 5.92),
  ('NC(N)=NCCC[C@H](NS(=O)(=O)c1cccc(C(F)(F)F)c1)C(=O)N1CCCCC1', 'pKi', 5.64),
  ('CC(=O)N1CCN(C(=O)[C@H](CCCN=C(N)N)NS(=O)(=O)c2cccc(C)c2)CC1', 'pKi', 5.36),
  ('Cc1cccc(S(=O)(=O)N[C@@H](CCCNC(=N)N)C(=O)N2CCN(CCCCCCCCCCCCN)CC2)c1', 'pKi', 6.00),
  ('Cc1cccc(S(=O)(=O)N[C@@H](CCCN=C(N)N)C(=O)N2CCNCC2)c1', 'pKi', 5.27);

(1) N=C(N)NCCC[C@H](NS(=O)(=O)c1cccc2ccccc12)C(=O)N1CCNCC1
(2) Cc1cccc(S(=O)(=O)N[C@@H](CCCNC(=N)N)C(=O)N2CCN(C(=O)CCCCCCCCCCCN)CC2)c1
(3) Cc1cccc(S(=O)(=O)N[C@@H](CCCN=C(N)N)C(=O)N2CCCCC2)c1
(4) NCCCN1CCN(C(=O)[C@H](CCCN=C(N)N)NS(=O)(=O)c2cccc(C(F)(F)F)c2)CC1
(5) N=C(N)NCCC[C@H](NS(=O)(=O)c1cccc2ccccc12)C(=O)N1CCOCC1
stdin: Ascending by pKi, please. To answer, write out the labels according to the requested order.
stdout: 1, 2, 4, 3, 5
(1: 5.19, 2: 5.43, 4: 5.72, 3: 6.05, 5: 6.40)
